Hi, quick share: literature Kd data for Retinoic acid receptor alpha (Homo sapiens, UniProt P10276), several sources combined.
Readout: Kd (nM)

P. CC(C)(C)c1cc(C(=O)Nc2ccc(C(=O)O)c(F)c2)c(O)c(C(C)(C)C)c1
Q. CCCCOc1c(C(C)(C)C)cc(/C(C)=C/C=C/C(C)=C/C(=O)O)cc1C(C)(C)C
R. CC1(C)CC=C(Sc2ccccc2)c2cc(/C=C/c3ccc(C(=O)O)cc3)ccc21
S. CC(C)=C1CCC(C)(C)c2ccc(C(=O)Oc3ccc(C(=O)O)cc3)cc21
Qu. Using the recorded Kd, list the entries above from smallest to largest. Answer format: the labels, in the requested order.
Ans. Q, S, P, R
(Q: 3 nM, S: 36 nM, P: 77 nM, R: 538 nM)
